Listed here are compounds together with their documented inhibition of SARS-CoV-2 cytopathic effect.
# Tested on: Vero E6 infected with SARS-CoV-2
# testDetails: inhibition of SARS-CoV-2 cytopathic effect; higher = more antiviral protection, active = above 15
# measurementSetup: 833.33 nM; 48 h
Quick reminder: number only, in %, skip the unit.

Sample answers from the record:
>>> measvalue("CN1CCOC(c2ccccc2)c2ccccc2C1 (configuration not stated) [nefopam]")
-1.03
>>> measvalue("CC[C@]1(O)C[C@@H]2CN(CCc3c([nH]c4ccccc34)[C@@](C(=O)OC)(c3cc4c(cc3OC)N(C)[C@H]3[C@@](O)(C(=O)OC)[C@H](OC(C)=O)[C@]5(CC)C=CCN6CC[C@]43[C@@H]65)C2)C1 [Vinblastine (sulfate)]")
0.75
>>> measvalue("CCc1cccc(CC)c1NC(=O)c1nn(C)c2c1CCc1cnc(Nc3ccc(C(=O)NC4CCN(C)CC4)cc3OC(F)(F)F)nc1-2")
0.13

Turning now to a further record.
-- ask Tell me the measured inhibition of SARS-CoV-2 cytopathic effect of CCCCCCCC/C=C/CCCCCCCC(=O)OC[C@H]1O[C@@H](n2ccc(N)nc2=O)C(F)(F)[C@@H]1O [gemcitabine-elaidate] , please.
-- reply 0.35
